This collection of values is drawn from PubChem BioAssay (NCI).

- Tested on: SF-295 CNS
- Assay Info: NCI tumour cell line growth inhibition, 48 h
Measured TGI accompanies every entry in the list below.

Example cases with answers are listed next.
# get_value(readout= TGI, system= SF-295 CNS) for C/C(=C\CBr)CCC(Br)C(C)(C)Cl (stereo not drawn) > 100 µM

Lookup Cc1ccc(-c2nc(N/N=C/C=C/c3ccccc3)c3ccccc3n2)cc1 > 100 µM

Lookup COc1ccc(NC(=O)C2CCC(CNS(=O)(=O)c3ccccc3)CC2)cc1OC (stereo not drawn) > 100 µM

Lookup COC(=O)c1cc2c(cc1Cl)SC1=NN(C)C(N(C)C)N1S2(=O)=O (stereo not drawn) > 100 µM

Lookup COc1ccc(Oc2cccc(C3C4C(=O)N(c5ccc(C)c(Cl)c5)C(=O)C4ON3C(C(N)=O)c3ccccc3)c2)cc1 (stereo not drawn) > 50 µM

---
# get_value(readout= TGI, system= SF-295 CNS) for C/C=C/C#CC#C/C=C/C=C/C(O)CCO (stereo not drawn) > 23.1 µM

Lookup O=C(/C=C/c1ccccc1)Oc1ccc(C(=O)/C=C/c2ccc(Cl)cc2)cc1 > 100 µM

Lookup CC1=NN(c2nc(N)nc(/C(C#N)=C\c3csc([N+](=O)[O-])c3)n2)C(C)(C)C1 > 100 µM

Lookup CCCCCCNC(=O)Oc1ccc(/C(=C(\C)c2ccc(Cl)cc2)c2ccc(OCCN3CCCCC3)cc2)cc1 9.62 µM

Lookup CC1CN=C(N(Cc2ccccc2)C(=O)Nc2ccc(Cl)c(Cl)c2)S1 (stereo not drawn) > 10 µM

Lookup Cc1ccc(NC(=O)c2cc(S(=O)(=O)Nc3n[nH]c(=O)[nH]3)c(SSc3cc(Cl)c(C(=O)Nc4ccc(C)cc4)cc3S(=O)(=O)Nc3n[nH]c(=O)[nH]3)cc2Cl)cc1 > 100 µM

----------
- Test system: CCRF-CEM leukemia
- Assay Info: NCI tumour cell line growth inhibition, 48 h
Quantity Measured: TGI

# get_value(readout= TGI, system= CCRF-CEM leukemia) for C=C1CC(c2ccc(OCCCN3C(=O)c4ccccc4C3=O)cc2)OC1=O (stereo unspecified) 4.56 µM

Kindly consider the entry below.
# get_value(readout= TGI, system= CCRF-CEM leukemia) for CC(=O)NCc1cccc(C#Cc2cncnc2Nc2ccc(OCc3cccc(F)c3)c(Cl)c2)c1 > 25 µM

----------
- Test system: NCI/ADR-RES ovarian
- Assay Info: NCI tumour cell line growth inhibition, 48 h
Quantity Measured: TGI

Example cases with answers are listed next.
Request the reported TGI associated with O=C(O)CCC(=O)c1ccc2sc3ccccc3c2c1 > 100 µM

Lookup COC(=O)c1cncc(/C=C/c2c(C)cc(O)cc2C)c1 > 25 µM

Lookup COc1ccc(OC)c(N(CN2C(=O)CCC2C(=O)O)C(C)=O)c1 (centres undefined) > 100 µM

---
Request the reported TGI associated with CCCC1CCC(=C2C(=O)CCC2=O)O1 (centres undefined) > 100 µM

----------
- System: MALME-3M melanoma
- Assay Info: NCI tumour cell line growth inhibition, 48 h
Quantity Measured: TGI

Example cases with answers are listed next.
# get_value(readout= TGI, system= MALME-3M melanoma) for COC(=O)c1ccc2c(c1)S/C(=C/c1ccc3ccc4cccc5ccc1c3c45)S2 > 100 µM

Lookup C[C@]12C[C@@H](OC(=O)[C@]1(C)O)[C@@H]([C@]1(O)CC[C@H]3[C@@H]4C[C@H]5O[C@]56C[C@H]5O[C@H]5C(=O)[C@]6(C)[C@H]4CC[C@@]31C)C2 > 5 µM

---
# get_value(readout= TGI, system= MALME-3M melanoma) for CCOC(=O)C1(C(=O)OCC)[C@@H](c2ccccc2)C2=NO[C@@H]3CCC[C@H]1[C@H]23 > 100 µM

Lookup CCOC(=O)/C(C#N)=C(O)/C(=C\c1ccc(Br)cc1)NC(=O)c1ccccc1 > 100 µM

Lookup Nc1nc(O)c2ncn([C@H]3CC[C@@H](CO)O3)c2n1 > 100 µM

Lookup CC(C)=CCN1CC(C)C(=O)Nc2ccccc21 (stereo unspecified) > 100 µM
